# target under test: myeloperoxidase (MPO) (Homo sapiens (Human), UniProt P05164)
# Sequence (P05164 49-745): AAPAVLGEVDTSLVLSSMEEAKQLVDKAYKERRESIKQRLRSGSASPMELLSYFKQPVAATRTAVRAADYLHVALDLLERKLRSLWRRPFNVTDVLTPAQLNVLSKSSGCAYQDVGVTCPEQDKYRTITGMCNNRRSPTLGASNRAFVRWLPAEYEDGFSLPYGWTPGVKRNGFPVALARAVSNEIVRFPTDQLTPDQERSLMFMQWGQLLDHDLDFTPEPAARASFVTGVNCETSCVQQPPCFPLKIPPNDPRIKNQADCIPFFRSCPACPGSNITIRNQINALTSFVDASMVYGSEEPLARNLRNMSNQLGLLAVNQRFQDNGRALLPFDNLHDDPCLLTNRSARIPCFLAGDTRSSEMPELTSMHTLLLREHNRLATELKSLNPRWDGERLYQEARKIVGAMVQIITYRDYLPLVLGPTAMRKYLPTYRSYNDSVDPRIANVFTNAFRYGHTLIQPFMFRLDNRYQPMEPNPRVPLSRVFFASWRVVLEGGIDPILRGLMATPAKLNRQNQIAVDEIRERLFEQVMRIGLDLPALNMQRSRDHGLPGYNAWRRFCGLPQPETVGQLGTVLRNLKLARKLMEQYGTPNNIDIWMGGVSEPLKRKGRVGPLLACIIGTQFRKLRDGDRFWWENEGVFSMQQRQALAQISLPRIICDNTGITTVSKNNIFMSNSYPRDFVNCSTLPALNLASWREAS
# measurement notes: MPO peroxidation assay (Amplex Red assay)
# Assay type: biochemical
# study conditions: potency range class
pIC50: −log10 of the molar value.
parameter: pIC50

Query block: Field: pIC50 (myeloperoxidase (MPO) (Homo sapiens (Human), UniProt P05164)). Entry: Nc1cc(Cc2cnn(Cc3cn(Cc4ccccc4)nn3)c2)c2nn[nH]c2n1 [Example 107]
Result block: 7.00 to 9.00

Query block: Field: pIC50 (myeloperoxidase (MPO) (Homo sapiens (Human), UniProt P05164)). Entry: Nc1cc(Cc2cnn(Cc3ccc(C(=O)NCc4cncnc4)cc3)c2)c2nn[nH]c2n1 [Example 93]
Result block: 7.00 to 9.00

Query block: Field: pIC50 (myeloperoxidase (MPO) (Homo sapiens (Human), UniProt P05164)). Entry: NCCN1Cc2ccc(Cn3cc(Cc4cc(N)nc5[nH]nnc45)cn3)cc2C1=O [Example 258]
Result block: 6.00 to 7.00
